// data source = patent US4839350A

Test system: Staphylococcus aureus 209P JC-1
Assay: MIC by agar-dilution method, Staphylococcus aureus 209P JC-1
Type: cell-based
Details: read-out: MIC.
readout type: MIC (µg/mL)

{"compound": "CO/N=C(\\C(=O)NC1C(=O)N2C(C(=O)O)=C(/C=C\\c3ccco3)CSC12)c1csc(N)n1 (stereo not drawn) [Example 12]", "system name": "Staphylococcus aureus 209P JC-1", "measured": 0.39}
{"compound": "CO/N=C(\\C(=O)NC1C(=O)N2C(C(=O)O)=C(/C=C\\c3cncs3)CSC12)c1csc(N)n1 (stereo not drawn) [Example 33]", "system name": "Staphylococcus aureus 209P JC-1", "measured": 0.39}
{"compound": "CO/N=C(\\C(=O)NC1C(=O)N2C(C(=O)O)=C(/C=C\\c3cscn3)CSC12)c1csc(N)n1 (stereo not drawn) [Example 32]", "system name": "Staphylococcus aureus 209P JC-1", "measured": 0.39}
{"compound": "CO/N=C(\\C(=O)NC1C(=O)N2C(C(=O)O)=C(/C=C/c3scnc3C)CSC12)c1csc(N)n1 (stereo not drawn) [Example 18]", "system name": "Staphylococcus aureus 209P JC-1", "measured": 0.39}
{"compound": "CO/N=C(\\C(=O)NC1C(=O)N2C(C(=O)O)=C(/C=C\\c3ccccc3)CSC12)c1csc(N)n1 (stereo not drawn) [Example 11]", "system name": "Staphylococcus aureus 209P JC-1", "measured": 0.78}
{"compound": "CO/N=C(\\C(=O)NC1C(=O)N2C(C(=O)O)=C(/C=C\\c3cnc(C)s3)CSC12)c1csc(N)n1 (stereo not drawn) [Example 31]", "system name": "Staphylococcus aureus 209P JC-1", "measured": 0.78}
